The origin of these recorded values is PubChem BioAssay (NCATS).

experiment: Primary qHTS for small molecule stabilizers of the endoplasmic reticulum resident proteome: Secreted ER Calcium Modulated Protein (SERCaMP) assay (AID 1508630); settings: SH-SY5Y GLuc-SERCaMP (Gaussia luciferase released on ER calcium loss) secretion, thapsigargin, luminescence; series mostly up to 38.4 µM; further: on the % scale 0 is the no-effect control and ±100 the full control effect
Records with an inconclusive call do not appear. Active and inactive are the calls of the source. The call rests on the fitted dose curve; in most records, active means well fitted inhibition curve with a large enough effect; inconclusive means small, poorly fitted or top-dose-only effect; inactive means no such curve, though single readings can be large or run the other way.
value kind: outcome

>  <smiles notation>
O=c1c(-c2cccs2)nc2cncnc2n1-c1ccccc1

>  <outcome>
inactive

$$$$
>  <smiles notation>
COc1ccc2[nH]cc(CCNc3ccnc(-c4cccc(C#N)c4)n3)c2c1

>  <outcome>
inactive

$$$$
>  <smiles notation>
CN1CCN(c2ncc3nc(-c4cn(C)c5ccccc45)c(=O)n(CCc4ccccc4)c3n2)CC1

>  <outcome>
inactive

$$$$
>  <smiles notation>
COc1cccc(Cn2c(=O)c(-c3ccccc3)nc3cnc(N(C)C)nc32)c1

>  <outcome>
inactive

$$$$
>  <smiles notation>
COc1ccc(CNc2ncncc2-c2ccoc2)c(OC)c1

>  <outcome>
inactive

$$$$
>  <smiles notation>
O=C(CCCCCN1C(=O)c2cccc3cccc(c23)C1=O)NO

>  <outcome>
inactive

$$$$

Asked: Endpoint output: outcome of "Cc1cnc(CNc2nc(-c3ccc(C(=O)N(C)C)cc3)nc3ccccc23)cn1" . Value?
Given back: inactive

Asked: Can you check "CN(Cc1ccco1)c1nc(-c2ccc3c(c2)OCO3)nc2ccccc12" next?
Given back: inactive

====

Task for the reader: assign each of the following compounds its reported Potency.
target: Lysosomal acid glucosylceramidase (Homo sapiens); test: Glucocerebrosidase-p2 (AID 348); conditions: purified GBA, blue fluorogenic substrate, 40 min; further: potency means the concentration at half of the fitted maximal effect
Calls of active or inactive are those of the source. Cut-off read from the data, not from the text of the source: active = potency below about 10 µM; inactive = the rest.

Asked: Value wanted: Potency (Lysosomal acid glucosylceramidase (Homo sapiens)) of entry "c1cncc(CNc2nc(-c3ccc4c(c3)OCO4)nc3ccccc23)c1"
Given back: > 11.4 µM (inactive)

Asked: What do you have for "O=C(c1cnccn1)N1CCC2(CCCN(Cc3nccs3)C2)CC1" ?
Given back: > 11.4 µM (inactive)

Asked: Item: "COC(=O)N1CCC2(CCCN(Cc3nccs3)C2)CC1"
Given back: > 11.4 µM (inactive)

Asked: Entry to check: "N#CCCn1c(=O)cnc2cnc(Nc3ccccc3)nc21"
Given back: > 11.4 µM (inactive)

Asked: Further, for "Cc1ccccc1-c1cc(Nc2ccc(F)cc2)ncn1" ?
Given back: > 11.4 µM (inactive)

Asked: Similarly, "CC(=O)N1CCC2(CCCN(c3ncccn3)C2)CC1" ?
Given back: > 11.4 µM (inactive)

Asked: Try the compound "COc1ccc(-n2c(=O)cnc3cnc(Nc4ccccc4)nc32)cc1"
Given back: > 11.4 µM (inactive)

Asked: Likewise for "c1cncc(CNc2cc(-c3ccoc3)ncn2)c1" ?
Given back: > 11.4 µM (inactive)

Asked: Same question for "CC(=O)NCCNc1nc(-c2ccc(C(=O)N(C)C)cc2)nc2ccccc12" please.
Given back: > 11.4 µM (inactive)

Asked: Okay, and "COc1ccc(Oc2ncc3nc(-c4cn(C)c5ccccc45)c(=O)n(CCC#N)c3n2)cc1" ?
Given back: > 11.4 µM (inactive)

Asked: Another: "COc1ccccc1CCn1c(=O)c(-c2cccc(Cl)c2)nc2cncnc21"
Given back: > 11.4 µM (inactive)

Asked: Can you check "COc1ncc2nc(-c3cccs3)c(=O)n(Cc3cccs3)c2n1" next?
Given back: > 11.4 µM (inactive)

Asked: Item: "Cn1cccc1C(=O)N1CCC[C@@]2(CCN(C(=O)Nc3cccc(F)c3)C2)C1"
Given back: > 11.4 µM (inactive)

Asked: Consider next the compound "COc1ccc(-c2nc3cnc(OCc4ccccc4)nc3n(CCC#N)c2=O)cc1" in the same way.
Given back: > 11.4 µM (inactive)

Asked: Same question for "COc1cccc(Nc2ncc3nc(CCc4ccccc4)c(=O)n(C4CC4)c3n2)c1" please.
Given back: > 11.4 µM (inactive)

Asked: Please answer likewise for "N#Cc1ccc(CN2CC3(CCN(C(=O)c4ccco4)CC3)C2)cc1"
Given back: > 11.4 µM (inactive)

Asked: Can you check "Cc1nc2cnc(OCc3ccccc3)nc2n(CCC#N)c1=O" next?
Given back: > 11.4 µM (inactive)

Asked: Subsequent entry: "CN1CCN(c2cc(-c3ccccc3Cl)ncn2)CC1"
Given back: > 11.4 µM (inactive)

Asked: Query "COc1cccc(Cn2c(=O)c(-c3cccs3)nc3cnc(N4CCOCC4)nc32)c1" next
Given back: > 11.4 µM (inactive)

Asked: Let us now turn to "O=C(Nc1ccccc1)N1CC[C@@]2(CCCN(C(=O)c3ccncc3)C2)C1"
Given back: > 11.4 µM (inactive)

Asked: What about "COc1ccccc1CN1CCC2(CC1)CCN(C(=O)c1ccco1)CC2" ?
Given back: > 11.4 µM (inactive)

Asked: Next up: "N#Cc1cccc(NC(=O)N2CC3(CCN(C(=O)c4cnccn4)CC3)C2)c1"
Given back: > 11.4 µM (inactive)

Asked: Try "COCCn1c(=O)c(C)nc2cnc(OC)nc21" next.
Given back: > 11.4 µM (inactive)

Asked: Ok, now "O=c1c(-c2ccccc2)nc2cnc(N3CCOCC3)nc2n1Cc1ccc(F)cc1"
Given back: > 11.4 µM (inactive)

Asked: Then what about the compound "COCC(=O)N1CCC[C@@]2(CCN(c3ccncc3)C2)C1" ?
Given back: > 11.4 µM (inactive)

Asked: Request: "COCC(=O)N1CCC2(CC1)CN(c1ccc(-c3ccccc3)cc1)C2"
Given back: > 11.4 µM (inactive)

Asked: What do you get for "CN1CCN(c2ncc3nc(-c4cc(F)cc(F)c4)c(=O)n(CCC#N)c3n2)CC1" ?
Given back: > 11.4 µM (inactive)

Asked: Item: "O=c1c(-c2ccc(Cl)cc2)nc2cnc(N3CCNCC3)nc2n1Cc1ccc(F)cc1"
Given back: > 11.4 µM (inactive)

Asked: Next compound: "COc1ccc(-c2nc3cnc(N4CCN(C)CC4)nc3n(CCC#N)c2=O)cc1"
Given back: > 11.4 µM (inactive)

Asked: // next record "O=C(Nc1cccc(F)c1)N1CCCC2(CCN(C(=O)c3cc(C(F)(F)F)cc(C(F)(F)F)c3)CC2)C1"
Given back: > 11.4 µM (inactive)

Asked: Moving on to the next compound: "COc1ncc2nc(C)c(=O)n(C[C@H]3CCCO3)c2n1"
Given back: > 11.4 µM (inactive)

Asked: Subsequent entry: "N#Cc1cccc(NC(=O)N2CCCC3(CCN(C(=O)c4ccco4)CC3)C2)c1"
Given back: > 11.4 µM (inactive)

Asked: Moving on to the next compound: "CS(=O)(=O)N1CCC[C@@]2(CCN(Cc3ccc(C#N)cc3)C2)C1"
Given back: > 11.4 µM (inactive)

Asked: Consider next the compound "CNc1ncnc2ccc(-c3ccc4c(c3)OCO4)cc12" in the same way.
Given back: > 11.4 µM (inactive)

Asked: Could you do the same for "Cc1noc(C)c1C(=O)N1CCC2(CCN(Cc3nccs3)CC2)CC1" , please?
Given back: > 11.4 µM (inactive)

Asked: # iterate: "FC(F)(F)c1ccccc1-c1cncnc1NCc1cccs1"
Given back: > 11.4 µM (inactive)

Asked: Try the compound "O=C(c1cnccn1)N1CCC2(CCCN(c3ccc(-c4ccccc4)cc3)C2)CC1"
Given back: > 11.4 µM (inactive)

Asked: Can you check "Cn1cccc1C(=O)N1CCC2(CC1)CCN(C(c1ccccc1)c1ccccc1)CC2" next?
Given back: > 11.4 µM (inactive)

Asked: Would you kindly repeat that for "COc1ccc2[nH]cc(CCNc3ncncc3-c3cccnc3)c2c1" ?
Given back: > 11.4 µM (inactive)

Asked: // next record "CC(=O)NCCNc1ncnc2ccc(-c3ccccc3Cl)cc12"
Given back: > 11.4 µM (inactive)

Asked: How about "Cc1cccc(CNc2nc(-c3c(C)noc3C)nc3ccccc23)c1" ?
Given back: > 11.4 µM (inactive)

Asked: Do the same for "CC(=O)N1CCC2(CCCN(Cc3nccs3)C2)CC1" please
Given back: > 11.4 µM (inactive)

Asked: Okay, and "COc1ccccc1CNc1ncncc1-c1ccc(C(=O)N(C)C)cc1" ?
Given back: > 11.4 µM (inactive)

Asked: Can you check "COc1ccccc1-c1ccc2ncnc(NCc3cnc(C)cn3)c2c1" next?
Given back: > 11.4 µM (inactive)

Asked: Consider next the compound "Cc1nc2cnc(Oc3ccccc3)nc2n(Cc2cccs2)c1=O" in the same way.
Given back: > 11.4 µM (inactive)

====

assay: AP1 Signaling Pathway (AID 357); conditions: ME-180 (cervical carcinoma) AP-1-bla reporter, EGF-induced, beta-lactamase ratio, 5 h; at 7.69 µM (top of the series) unless noted;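 further: ME-180 reporter cells stimulated with EGF at its EC50 level; on the % scale 0 is the no-effect control and ±100 the full control effect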
Inconclusive results are not listed.
Record form. Attribute: activity change, negative = inhibition. Fill in for each entry.
# number only, unit % dropped from output

Asked: Fill in the blank: the reported activity change, negative = inhibition of "CN(Cc1ccco1)c1nc(-c2ccoc2)nc2ccccc12" is ____.
Given back: -25.1

Asked: Try this molecule next: "COc1ccc(C(=O)N2CCC[C@@]3(CCN(C(=O)Nc4cccc(F)c4)C3)C2)cc1"
Given back: -10.8

Asked: What do we get for "N#Cc1ccc(CN2CC[C@@]3(CCCN(S(=O)(=O)c4ccccc4)C3)C2)cc1" ?
Given back: 0.616

Asked: Now try "CC(C)CN1CCCC2(CCN(C(=O)c3ccco3)CC2)C1" .
Given back: -0.809

Asked: # iterate: "COc1ncc2nc(-c3cn(C)c4ccccc34)c(=O)n(-c3ccccc3)c2n1"
Given back: -0.341

Asked: Could you do the same for "O=S(=O)(c1ccccc1)N1CCC2(CCN(Cc3ccncc3)CC2)CC1" , please?
Given back: -0.758

Asked: For "Cc1noc(C)c1C(=O)N1CCC[C@@]2(CCN(Cc3cc(C(F)(F)F)cc(C(F)(F)F)c3)C2)C1" then?
Given back: 1.15

Asked: Same question for "c1ccc(CNc2ncncc2-c2ccoc2)cc1" please.
Given back: 9.24

Asked: // same read-out, input: "COCCn1c(=O)c(-c2ccc(OC)cc2)nc2cnc(N3CCOCC3)nc21"
Given back: -13.6

Asked: Could you do the same for "O=C(c1csnn1)N1CCC[C@@]2(CCN(Cc3cc(C(F)(F)F)cc(C(F)(F)F)c3)C2)C1" , please?
Given back: -0.847
